Please go through the items and note down their IC50.
target: melittin (Apis mellifera); assay: cell-based; conditions: read-out: IC50, inhibition of melittin (converted)
Sequence (P01501 44-69 limits assumed): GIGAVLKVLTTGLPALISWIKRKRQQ
One number for each entry, in µM.

Study these solved cases before continuing.
Ac-VIQQFV-NH2 [Ac-VIQQFV-NH2]; 20.7
Ac-IVILLP-NH2 [Ac-IVILLP-NH2]; 36.7
Ac-IVILLD-NH2 [Ac-IVILLD-NH2]; 24.8
Ac-IDIYFE-NH2 [Ac-IDIYFE-NH2]; 355
Ac-IIIWCE-NH2 [Ac-IIIWCE-NH2]; 5.51

// input: 8 substances below; output: IC50 for each
1. Ac-IVIFFW-NH2 [Ac-IVIFFW-NH2]
2. Ac-IIIYCE-NH2 [Ac-IIIYCE-NH2]
3. Ac-FDIYCE-NH2 [Ac-FDIYCE-NH2]
4. Ac-IVILLL-NH2 [Ac-IVILLL-NH2]
5. Ac-IVILLQ-NH2 [Ac-IVILLQ-NH2]
6. Ac-IVIFFF-NH2 [Ac-IVIFFF-NH2]
7. Ac-IVILTH-NH2 [Ac-IVILTH-NH2]
8. Ac-FIIYFE-NH2 [Ac-FIIYFE-NH2]

1: 18.5; 2: 15.1; 3: 229; 4: 123; 5: 12.2; 6: 205; 7: 76.1; 8: 7.8
